biological target: T1, human KDR (VEGFR2) on cells (human, UniProt P35968 20-1356); assay: FACS on HUVEC, hybridoma supernatant 1:50
T1 construct: whole, on cells; also called native KDR on HUVEC; endogenously expressed KDR
T1 sequence (P35968 20-1356): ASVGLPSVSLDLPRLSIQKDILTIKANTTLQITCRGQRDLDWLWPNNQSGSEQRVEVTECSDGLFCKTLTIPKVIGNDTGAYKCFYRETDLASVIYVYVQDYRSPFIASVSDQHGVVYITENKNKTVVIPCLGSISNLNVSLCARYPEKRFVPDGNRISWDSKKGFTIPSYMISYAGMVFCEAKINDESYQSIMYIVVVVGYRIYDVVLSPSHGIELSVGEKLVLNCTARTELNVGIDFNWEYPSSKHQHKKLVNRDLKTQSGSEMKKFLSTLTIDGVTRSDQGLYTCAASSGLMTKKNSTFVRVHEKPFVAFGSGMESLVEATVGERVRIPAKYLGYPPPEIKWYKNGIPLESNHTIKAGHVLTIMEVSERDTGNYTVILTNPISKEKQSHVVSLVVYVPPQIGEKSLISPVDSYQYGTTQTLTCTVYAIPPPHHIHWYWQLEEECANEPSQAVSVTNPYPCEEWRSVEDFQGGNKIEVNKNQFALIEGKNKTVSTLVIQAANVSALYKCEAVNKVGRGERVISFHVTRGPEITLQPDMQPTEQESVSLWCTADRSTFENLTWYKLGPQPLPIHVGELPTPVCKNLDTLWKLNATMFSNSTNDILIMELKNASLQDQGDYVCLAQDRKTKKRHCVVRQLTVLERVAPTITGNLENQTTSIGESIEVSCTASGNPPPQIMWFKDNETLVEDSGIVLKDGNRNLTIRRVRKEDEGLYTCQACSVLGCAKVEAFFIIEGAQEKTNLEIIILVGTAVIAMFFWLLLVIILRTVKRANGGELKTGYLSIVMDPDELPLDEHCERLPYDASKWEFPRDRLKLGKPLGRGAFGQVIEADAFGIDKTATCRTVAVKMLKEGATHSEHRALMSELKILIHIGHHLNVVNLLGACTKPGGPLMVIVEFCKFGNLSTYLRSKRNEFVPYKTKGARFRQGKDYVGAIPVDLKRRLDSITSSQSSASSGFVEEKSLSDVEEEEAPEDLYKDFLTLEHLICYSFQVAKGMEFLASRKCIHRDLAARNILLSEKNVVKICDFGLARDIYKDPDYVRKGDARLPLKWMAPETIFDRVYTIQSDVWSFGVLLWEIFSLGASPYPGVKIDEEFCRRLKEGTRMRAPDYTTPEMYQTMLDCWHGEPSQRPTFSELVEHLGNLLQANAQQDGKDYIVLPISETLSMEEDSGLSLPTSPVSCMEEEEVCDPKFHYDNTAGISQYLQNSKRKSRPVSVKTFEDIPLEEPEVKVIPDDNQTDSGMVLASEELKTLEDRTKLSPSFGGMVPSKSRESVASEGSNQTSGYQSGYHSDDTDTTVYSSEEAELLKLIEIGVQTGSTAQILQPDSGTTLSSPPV
Readout label: FACS Geometric Mean

- Binder: "anti-KDR monoclonal antibody 1G6 (antibody, V domains shown, Fully human mAb from XenoMouse (IgG2 or IgG4 strain); tested here as hybridoma supernatant) VH: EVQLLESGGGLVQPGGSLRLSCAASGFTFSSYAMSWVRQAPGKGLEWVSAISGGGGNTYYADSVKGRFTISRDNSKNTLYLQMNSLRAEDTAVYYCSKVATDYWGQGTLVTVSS VL: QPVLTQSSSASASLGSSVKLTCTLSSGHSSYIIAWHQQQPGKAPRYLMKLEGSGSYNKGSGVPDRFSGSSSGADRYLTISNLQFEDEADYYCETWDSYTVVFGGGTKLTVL"
  Observed: 32
- Binder: "anti-KDR monoclonal antibody 33E1 (antibody, V domains shown, Fully human mAb from XenoMouse (IgG2 or IgG4 strain); hybridoma supernatant) VH: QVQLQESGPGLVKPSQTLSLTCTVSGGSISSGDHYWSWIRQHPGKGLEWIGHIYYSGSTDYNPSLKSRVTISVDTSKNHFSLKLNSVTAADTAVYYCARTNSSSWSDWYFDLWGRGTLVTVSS VL: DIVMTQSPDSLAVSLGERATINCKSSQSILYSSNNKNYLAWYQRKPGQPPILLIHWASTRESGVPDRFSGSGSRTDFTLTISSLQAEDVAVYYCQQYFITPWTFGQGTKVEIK"
  Observed: 14
- Binder: "anti-KDR monoclonal antibody 24C9 (antibody, V domains shown, Fully human mAb from XenoMouse (IgG2 or IgG4 strain); hybridoma supernatant) VH: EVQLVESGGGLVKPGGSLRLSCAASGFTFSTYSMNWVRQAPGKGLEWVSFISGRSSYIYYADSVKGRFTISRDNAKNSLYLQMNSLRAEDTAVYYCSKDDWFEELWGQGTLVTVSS VL: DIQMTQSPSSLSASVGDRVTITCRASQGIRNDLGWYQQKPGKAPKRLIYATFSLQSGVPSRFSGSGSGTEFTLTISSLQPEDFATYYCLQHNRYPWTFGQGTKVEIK"
  Observed: 33
- Binder: "anti-KDR monoclonal antibody 30A1 (antibody, V domains shown, Fully human mAb from XenoMouse (IgG2 or IgG4 strain); hybridoma supernatant) VH: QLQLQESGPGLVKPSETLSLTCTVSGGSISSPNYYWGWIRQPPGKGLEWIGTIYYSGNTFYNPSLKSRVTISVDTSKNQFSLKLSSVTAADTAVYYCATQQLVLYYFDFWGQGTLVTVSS VL: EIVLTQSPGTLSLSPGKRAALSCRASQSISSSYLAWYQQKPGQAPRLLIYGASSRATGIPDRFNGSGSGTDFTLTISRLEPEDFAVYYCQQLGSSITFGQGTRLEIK"
  Observed: 25
- Binder: "anti-KDR monoclonal antibody 24B3 (antibody, V domains shown, Fully human mAb from XenoMouse (IgG2 or IgG4 strain); hybridoma supernatant) VH: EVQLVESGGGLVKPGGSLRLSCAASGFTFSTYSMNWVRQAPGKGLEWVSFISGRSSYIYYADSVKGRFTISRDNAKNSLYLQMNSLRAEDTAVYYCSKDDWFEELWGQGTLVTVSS VL: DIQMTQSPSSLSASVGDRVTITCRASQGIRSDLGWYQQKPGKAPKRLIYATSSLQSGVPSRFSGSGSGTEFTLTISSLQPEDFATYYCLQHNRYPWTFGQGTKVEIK"
  Observed: 26
